systemName: GDP-bound KRAS protein (aa 1-169), containing both G12C and C118A amino acid substitutions (Homo sapiens (Human), UniProt P01116, C118A/G12C)
Sequence (P01116 other isoform, or with tags, fused parts or gaps G12C/C118A): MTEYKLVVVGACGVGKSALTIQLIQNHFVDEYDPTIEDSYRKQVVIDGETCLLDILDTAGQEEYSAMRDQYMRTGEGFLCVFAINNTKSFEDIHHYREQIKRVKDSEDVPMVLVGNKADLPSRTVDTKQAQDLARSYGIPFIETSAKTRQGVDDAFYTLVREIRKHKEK
runDescription: Coupled Nucleotide Exchange Assay
Format: biochemical
measurementContext: read-out: Coupled Exchange IC50 (2 h); 2 h compound pre-incubation
pIC50: −log10 of the molar value.
quantityKind: pIC50

C=CC(=O)N1CC(NC(=O)Cn2c3ccccc3c3cc(Br)ccc32)C1 [Example 71]; 5.45
C=CC(=O)N1CC(NC(=O)Cn2c(C)c(-c3ccccc3C)c3cc(Cl)ccc32)C1 [Example 121]; 5.80
C=CC(=O)N1CC(NC(=O)Cn2cc(-c3ccccc3-c3ccccc3)c3cc(Cl)ccc32)C1 [Example 112]; 5.63
C=CC(=O)N1CC(NC(=O)Cn2cc(C3CC3)c3ccc(-c4ccccc4Cl)cc32)C1 [Example 146]; 5.42
C=CC(=O)N1CC(NC(=O)Cn2c(C3CC3)c(C(=O)N3CCc4c(cccc4OC)C3)c3cc(Br)ccc32)C1 [Example 3-2]; 6.85
C=CC(=O)N1CC(NC(=O)Cn2cc(CC(=O)NCc3ccccc3)c3cc(Br)ccc32)C1 [Example 226]; 5.08
C=CC(=O)N1CC(NC(=O)Cn2c(C)c(-c3ccccc3C(C)C)c3cc(Cl)ccc32)C1 [Example 5-3]; 6.20
C=CC(=O)N1CC(NC(=O)Cn2c(C(=O)NCc3ccccc3)cc3cc(Br)ccc32)C1 [Example 164]; 4.97
C=CC(=O)N1CC(NC(=O)Cn2cc(CC#N)c3cc(Br)ccc32)C1 [Example 214]; 4.47
